Taken from the supplement of paper PMC10498489.

Tested on: HepG2 Srxn1-GFP reporter cells (+30 nM CDDO-Me)
TEST_DETAILS: Srxn1-GFP intensity median modified Z-score relative to plate median; higher = stronger NRF2 / oxidative stress reporter activation, active = hit call of the paper
TEST_SETTINGS: 10 µM; exposure time: 24h
In all, about 2,300 compounds went through this assay and about 330 (14%) showed activity.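 The calls were made as follows: active = median modified Z-score above 1.96; inactive = 1.96 or below.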 A selection follows.
Field 'call' accepts active, inactive

I would be grateful if you could indicate the recorded call for COc1cnc(=NS(=O)(=O)c2ccc(N)cc2)[nH]c1 [euspeclibcmpd408] .
inactive

# fetch the recorded call for COc1cc(C)c2c(c1C=O)Oc1c(c(C)c(O)c3c(O)oc(O)c13)OC2=O [euspeclibcmpd1947] here
inactive

Write down the call the test reported for this compound. Item: O=c1c2c3c(sc2nc(SCc2ccc(Cl)c(Cl)c2)n1-c1ccccc1)CCCC3
inactive

Record lookup: outcome of this test for O=C(Nc1ccccc1)OCC(CN1CCCCC1)OC(=O)Nc1ccccc1 (stereo unspecified) [euspeclibcmpd499] ?
inactive

Look up the recorded call for COc1ccc(Cc2c[nH]c(=N)[nH]c2=N)cc1OC [euspeclibcmpd456] in this test.
inactive

Per the assay record, what outcome was assigned to CC(=O)OCC(=O)[C@@]1(O)[C@@H](C)CC2C3CC=C4CC(=O)C=C[C@]4(C)[C@@]3(F)[C@@H](O)C[C@@]21C (stereo partly specified) [euspeclibcmpd2268] ?
inactive

Recorded test call requested for CN(Cc1cnc2[nH]c(=N)[nH]c(=N)c2n1)c1ccc(C(=O)NC(CCC(=O)O)C(=O)O)cc1 (stereo unspecified) [euspeclibcmpd190]
active

Recorded test outcome, item Cc1cc[nH]c(=NS(=O)(=O)c2ccc(N)cc2)n1 [euspeclibcmpd275]
inactive

Which result was noted for this compound in the test: N=c1[nH]c(=N)c2nc(CNc3ccc(C(=O)NC(CCC(=O)O)C(=O)O)cc3)cnc2[nH]1 (stereo unspecified) [euspeclibcmpd911]
active

Name the outcome recorded for Oc1ccc(C(O)O)[nH]1 [euspeclibcmpd1237] in the assay.
inactive

Dear all, I need the recorded test outcome for CC(C)=CCc1c(O)cc2oc(C)cc(=O)c2c1O [euspeclibcmpd1412] , thank you.
inactive

----------
Test system: HepG2 Srxn1-GFP reporter cells (+30 nM CDDO-Me)
TEST_DETAILS: Srxn1-GFP intensity median modified Z-score relative to plate median; higher = stronger NRF2 / oxidative stress reporter activation, active = hit call of the paper
TEST_SETTINGS: 10 µM; exposure time: 24h
About 330 (14%) of roughly 2,300 compounds showed activity. A selection follows.
Could you label it criterion met if measured Srxn1-GFP intensity median modified Z-score is 0.5 or higher, and criterion not met otherwise?

Hi team, for CCCCNC(=O)NS(=O)(=O)c1ccc(OC)cc1 , is the recorded Srxn1-GFP intensity median modified Z-score at or above 0.5?
criterion met

Does Srxn1-GFP intensity median modified Z-score meet or surpass 0.5 for NC(=O)NC(CCC(=O)O)C(=O)O (configuration not stated) [euspeclibcmpd1209] ?
criterion not met

# check: Srxn1-GFP intensity median modified Z-score of CC(C)=CCC/C(C)=C/CC/C(C)=C/CO [euspeclibcmpd2192] is greater than or equal to 0.5
criterion met

Decide: Srxn1-GFP intensity median modified Z-score of CC1C(=O)O[C@H]2CC34[C@H]5CC(C(C)(C)C)C36C(=O)C(O)O[C@H]6OC4(C(=O)O5)[C@@]12O (some centres not stated) [euspeclibcmpd2300] >= 0.5?
criterion not met

Evaluate C[C@@H]1O[C@@H](OC[C@H]2OC(Oc3c(-c4ccc(O)c(O)c4)oc4cc(O)cc(O)c4c3=O)[C@H](O)[C@@H](O)[C@@H]2O)[C@H](O)[C@H](O)[C@H]1O (some centres not stated) [euspeclibcmpd2149] : Srxn1-GFP intensity median modified Z-score at minimum 0.5?
criterion not met

Check this compound for Srxn1-GFP intensity median modified Z-score at or above 0.5: C[C@]12CCC3c4ccc(O)cc4CCC3C1CC[C@@H]2O (some centres not stated) [euspeclibcmpd115]
criterion not met

Dear colleague, could you confirm whether NC(=O)Nc1[nH]c(=O)[nH]c1O [euspeclibcmpd347] has Srxn1-GFP intensity median modified Z-score at or above 0.5?
criterion not met

Hi, just wondering whether CC(CCc1ccc(O)cc1)NCC(O)c1ccc(O)cc1 (configuration not stated) [euspeclibcmpd467] shows Srxn1-GFP intensity median modified Z-score of 0.5 or higher.
criterion met

Hello, I need to know if CNC(C)[C@@H]1CC[C@@H](N)[C@@H](OC2[C@@H](N)C[C@@H](N)[C@H](OC3OC[C@](C)(O)[C@H](NC)[C@H]3O)[C@H]2O)O1 (some centres not stated) [euspeclibcmpd820] has measured Srxn1-GFP intensity median modified Z-score not below 0.5. Thanks!
criterion not met

For this compound, is measured Srxn1-GFP intensity median modified Z-score 0.5 or higher? CONC(=O)c1cc(-c2ccccc2)nc2ccccc12
criterion met

Would you say Cc1cc(-c2ccc(N=Nc3ccc4c(S(=O)(=O)O)cc(S(=O)(=O)O)c(N)c4c3O)c(C)c2)ccc1N=Nc1ccc2c(S(=O)(=O)O)cc(S(=O)(=O)O)c(N)c2c1O [euspeclibcmpd2073] shows Srxn1-GFP intensity median modified Z-score at minimum 0.5?
criterion not met

Record C#C[C@]1(O)CCC2C3CCc4cc(OC5CCCC5)ccc4C3CC[C@@]21C (some centres not stated) [euspeclibcmpd466] ; criterion: Srxn1-GFP intensity median modified Z-score no lower than 0.5. Met?
criterion not met
